- measured.on: MDMX (Homo sapiens)
- assay: Competitive fluorescence polarization assay for MDMX
- Assay type: binding
- stated.conditions: competitive FP assay, read-out: IC50 (MDMX)
recorded.endpoint: IC50

CCCC[C@H](NC(=O)[C@H](C)NC(=O)[C@H](C)NC(=O)[C@]1(C)CCCC=CCCCCCC[C@@](C)(NC(=O)[C@H](Cc2ccccc2)NC(=O)[C@@H](NC(=O)[C@H](CC(C)C)NC(C)=O)[C@@H](C)O)C(=O)N[C@@H](C)C(=O)N[C@@H](Cc2ccc(O)cc2)C(=O)N[C@@H](Cc2c[nH]c3ccccc23)C(=O)N[C@@H](C)C(=O)N[C@@H](CCC(N)=O)C(=O)N[C@@H](CC(C)C)C(=O)N1)C(=O)NC(C)(C)C(N)=O (single isomer, unassigned) [compound 398] = 10 to 100 nM

Problem: Param readout = IC50; param system = MDMX (Homo sapiens); param query = CC(=O)N[C@@H](CC(C)C)C(=O)N[C@H](C(=O)N[C@@H](Cc1ccccc1)C(=O)N[C@]1(C)CCCCCCC=CCCC[C@@](C)(C(=O)N[C@@H](CO)C(=O)N[C@@H](C)C(=O)N[C@@H](C)C(N)=O)NC(=O)[C@H](C2CCCC2)NC(=O)[C@H](CCC(N)=O)NC(=O)[C@H](C)NC(=O)[C@H](Cc2c[nH]c3ccccc23)NC(=O)[C@H](Cc2ccc(O)cc2)NC(=O)[C@H](CCC(=O)O)NC1=O)[C@@H](C)O (single isomer, unassigned) [compound 150] ; response: value
Solution: 100 to 1000 nM

###

- measured.on: MDM2 (Homo sapiens, UniProt Q00987)
- Sequence (Q00987 1-125): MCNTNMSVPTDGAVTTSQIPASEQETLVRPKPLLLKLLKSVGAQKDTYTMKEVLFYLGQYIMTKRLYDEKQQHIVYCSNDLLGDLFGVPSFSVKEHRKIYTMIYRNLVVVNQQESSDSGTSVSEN
- assay: Competitive fluorescence polarization assay for MDM2
- Assay type: binding
- stated.conditions: competitive FP assay, MDM2; read-out: IC50 (MDM2)
pIC50: −log10 of the molar value.
recorded.endpoint: pIC50

CCCC[C@H](NC(=O)[C@@H](C)NC(=O)[C@H](C)NC(=O)[C@]1(C)CCCC=CCCCCCC[C@@](C)(NC(=O)[C@H](Cc2ccccc2)NC(=O)[C@@H](NC(=O)[C@H](CC(C)C)NC(C)=O)[C@@H](C)O)C(=O)N[C@@H](C)C(=O)N[C@@H](Cc2ccc(O)cc2)C(=O)N[C@@H](Cc2c[nH]c3ccccc23)C(=O)N[C@@H](C)C(=O)N[C@@H](CCC(N)=O)C(=O)N[C@@H](CC(C)C)C(=O)N1)C(=O)N[C@@H](C)C(N)=O (single isomer, unassigned) = > 8.00

Problem: Param readout = pIC50; param system = MDM2 (Homo sapiens, UniProt Q00987); param query = CC(=O)N[C@@H](CC(C)C)C(=O)N[C@H](C(=O)N[C@@H](Cc1ccccc1)C(=O)N[C@]1(C)CCCCCCC=CCCC[C@@](C)(C(=O)N[C@@H](CO)C(=O)N[C@@H](C)C(=O)N[C@@H](C)C(N)=O)NC(=O)[C@H](CC(C)C)NC(=O)[C@H](C)NC(=O)[C@H](C)NC(=O)[C@H](Cc2c[nH]c3ccccc23)NC(=O)[C@H](CO)NC(=O)[C@H](C)NC1=O)[C@@H](C)O (single isomer, unassigned) ; response: value
Solution: 7.00 to 8.00

###

Catalogue of compounds with associated pKi
- measured.on: MDMX (Homo sapiens, UniProt O15151)
- assay: Competitive fluorescence polarization assay for MDMX
- Format: binding
- stated.conditions: competitive FP assay, read-out: Ki (MDMX)
pKi: −log10 of the molar value.

CCCC[C@H](NC(=O)[C@H](C)NC(=O)[C@H](C)NC(=O)[C@]1(C)CCCC=CCCCCCC[C@@](C)(NC(=O)[C@H](Cc2ccccc2)NC(=O)[C@@H](NC(=O)[C@H](CC(C)C)NC(=O)[C@H](C)NC(C)=O)[C@@H](C)O)C(=O)N[C@@H](C)C(=O)N[C@@H](Cc2ccc(O)cc2)C(=O)N[C@@H](Cc2c[nH]c3ccccc23)C(=O)N[C@@H](C)C(=O)N[C@@H](CCC(N)=O)C(=O)N[C@@H](CC(C)C)C(=O)N1)C(=O)N[C@@H](C)C(=O)N[C@@H](C)C(N)=O = 7.00 to 8.00

Next up:
Problem: Param readout = pKi; param system = MDMX (Homo sapiens, UniProt O15151); param query = CCCC[C@H](NC(=O)[C@H](C)NC(=O)[C@H](C)NC(=O)[C@]1(C)CCCC=CCCCCCC[C@@](C)(NC(=O)[C@H](Cc2ccccc2)NC(=O)[C@@H](NC(=O)[C@H](CC(C)C)NC(C)=O)[C@@H](C)O)C(=O)N[C@@H](C)C(=O)N[C@@H](Cc2ccc(O)cc2)C(=O)N[C@@H](Cc2c[nH]c3ccccc23)C(=O)N[C@@H](C)C(=O)N[C@@H](CCC(N)=O)C(=O)N[C@@H](CC(C)C)C(=O)N1)C(=O)N[C@@H](C)C(=O)N[C@@H](C)C(N)=O ; response: value
Solution: 6.00 to 7.00

###

- measured.on: MDMX (Homo sapiens, UniProt O15151)
- Sequence (O15151 1-125): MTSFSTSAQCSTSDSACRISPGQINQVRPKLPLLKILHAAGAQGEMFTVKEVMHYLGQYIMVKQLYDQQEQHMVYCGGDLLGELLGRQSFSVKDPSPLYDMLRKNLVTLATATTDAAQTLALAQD
- assay: Competitive fluorescence polarization assay for MDMX
- Assay type: binding
- stated.conditions: competitive FP assay, read-out: Ki (MDMX)
pKi: −log10 of the molar value. Where a SMILES comes first, the peptide text is derived from it. Bridges are numbered along the chain shown (N, C = ends). [ ]: non-standard residue; d: D form. R8 = C=CCCCCCC[C@@](C)(N)C(=O)O; Cha = N[C@@H](CC1CCCCC1)C(=O)O; S5 = C=CCCC[C@](C)(N)C(=O)O; Ac3c = NC1(C(=O)O)CC1
Catalogue of molecules with associated pKi

Look over these answered cases.
CC(=O)N[C@@H](Cc1ccccc1)C(=O)N[C@]1(C)CCCCCCC=CCCC[C@@](C)(C(=O)N[C@@H](C)C(=O)N[C@@H](C)C(=O)N[C@@H](CC(C)C)C(N)=O)NC(=O)[C@H](CC(C)C)NC(=O)C2(CC2)NC(=O)[C@H](CCC(=O)O)NC(=O)[C@H](Cc2c[nH]c3ccccc23)NC(=O)[C@H](Cc2ccc(O)cc2)NC(=O)[C@H](C)NC1=O [compound 15] (Ac-F[R8]AYWE[Ac3c]L[S5]AAL-NH2; staple 2-9) = 7.00 to 8.00
CC[C@H](C)[C@H](NC(C)=O)C(=O)N[C@H](C(=O)N[C@@H](Cc1ccccc1)C(=O)N[C@]1(C)CCCCCCC=CCCC[C@@](C)(C(=O)N[C@@H](C)C(=O)N[C@@H](Cc2c[nH]cn2)C(=O)N[C@@H](Cc2ccccc2)C(=O)N[C@@H](C)C(N)=O)NC(=O)[C@H](CC(C)C)NC(=O)[C@H](CCC(N)=O)NC(=O)[C@H](C(C)C)NC(=O)[C@H](Cc2c[nH]c3ccccc23)NC(=O)[C@H](Cc2c[nH]cn2)NC(=O)[C@H](CCC(=O)O)NC1=O)[C@@H](C)O (single isomer, unassigned) = 6.00 to 7.00
CC[C@H](C)[C@H](NC(=O)[C@H](C)NC(=O)[C@H](C)NC(=O)[C@]1(C)CCCC=CCCCCCC[C@@](C)(NC(=O)[C@H](Cc2ccccc2)NC(=O)[C@@H](NC(=O)[C@H](CC(C)C)NC(C)=O)[C@@H](C)O)C(=O)N[C@@H](CCC(=O)O)C(=O)N[C@@H](Cc2ccc(O)cc2)C(=O)N[C@@H](Cc2c[nH]c3ccccc23)C(=O)N[C@@H](C)C(=O)N[C@@H](CCC(N)=O)C(=O)N[C@@H](CC(C)C)C(=O)N1)C(=O)N[C@H](C)C(N)=O (single isomer, unassigned) = 7.00 to 8.00
CC(=O)N[C@@H](Cc1ccccc1)C(=O)N[C@]1(C)CCCCCCC=CCCC[C@@](C)(C(=O)N[C@@H](CCCNC(=N)N)C(=O)N[C@@H](CCCNC(=N)N)C(=O)N[C@@H](CC(=O)O)C(=O)N[C@@H](CC2CCCCC2)C(N)=O)NC(=O)[C@H](CC(C)C)NC(=O)[C@H](CCC(N)=O)NC(=O)[C@H](Cc2c[nH]cn2)NC(=O)[C@H](Cc2c[nH]c3ccccc23)NC(=O)[C@H](Cc2c[nH]cn2)NC(=O)[C@H](Cc2c[nH]cn2)NC1=O [compound 30] (Ac-F[R8]HHWHQL[S5]RRD[Cha]-NH2; staple 2-9) = 7.00 to 8.00

Next up:
Problem: Query (molecule): CC(=O)N[C@@H](CC(C)C)C(=O)N[C@H](C(=O)N[C@@H](Cc1ccccc1)C(=O)N[C@]1(C)CCCCCCC=CCCC[C@@](C)(C(=O)N[C@@H](C)C(=O)N[C@@H](C)C(=O)N[C@@H](C)C(=O)N[C@@H](C)C(=O)N[C@@H](C)C(=O)N[C@H](C)C(N)=O)NC(=O)[C@H](CC2CCC2)NC(=O)[C@H](CCC(N)=O)NC(=O)[C@H](C)NC(=O)[C@H](Cc2c[nH]c3ccccc23)NC(=O)[C@H](Cc2ccc(O)cc2)NC(=O)[C@H](CCC(=O)O)NC1=O)[C@@H](C)O (single isomer, unassigned) ; field requested: pKi
Solution: 7.00 to 8.00
